- Test system: CAKI-1 renal
- experiment: NCI tumour cell line growth inhibition, 48 h
property_label: TGI

These recorded examples may help you get a feel for the data.
[
  {
    "molecule": "Cc1nc2sc(C(=O)Nc3cccc(Cl)c3C)c(N)c2cc1C(=O)/C=C/c1ccccc1",
    "property_label": "TGI",
    "result": "1.17 µM"
  },
  {
    "molecule": "c1ccc2c(C3CCN(CCN4CCOCC4)C3)c[nH]c2c1 (centres undefined)",
    "property_label": "TGI",
    "result": "> 100 µM"
  },
  {
    "molecule": "O=[N+]([O-])c1cccc(/C=N\\NS(=O)(=O)c2ccc(Cl)cc2)c1O",
    "property_label": "TGI",
    "result": "> 100 µM"
  },
  {
    "molecule": "NC(=O)C(=Cc1ccc(C(O)P(=O)(O)O)cc1)C(N)=O (centres undefined)",
    "property_label": "TGI",
    "result": "> 100 µM"
  },
  {
    "molecule": "COc1cc(/C=C/C(=O)CC(=O)/C=C/c2cc(OC)c(OC)c(OC)c2)cc(OC)c1OC",
    "property_label": "TGI",
    "result": "16.5 µM"
  }
]

// sample CCCCCCCCCCCCCCCCCCNc1ccn(C2OC(COP(=O)(O)OC3CC(n4cc(F)c(=O)[nH]c4=O)OC3COP(=O)(O)OCC3OC(n4ccc(N)nc4=O)C(O)C3O)C(O)C2O)c(=O)n1 (centres undefined) , its TGI was 35.5 µM

// sample COc1ccc2nc3c([N+](=O)[O-])ccc4c3c(c2c1)N=CN4CCCN(C)C , its TGI was 7.26 µM

// sample COc1cc(OC)c(/C=C/S(=O)(=O)Cc2cnc(OC)c(N)c2)c(OC)c1 , its TGI was > 100 µM

// sample CN(C)c1ccc(/C=N\NC(=O)c2ccccc2Nc2ccccc2C(=O)N/N=C/c2ccc(N(C)C)cc2)cc1 , its TGI was > 100 µM

----------
- Tested on: SNB-75 CNS
- experiment: NCI tumour cell line growth inhibition, 48 h
# TGI per entry

These recorded examples may help you get a feel for the data.
[
  {
    "compound": "COc1cc(OC)cc(C2CC(=O)Nc3c2c(C)nn3-c2nc3ccccc3[nH]2)c1 (centres undefined)",
    "tgt": "SNB-75 CNS",
    "result": "9.65 µM"
  },
  {
    "compound": "CC(=O)C(=[N+]=[N-])C(=O)NCC#N",
    "tgt": "SNB-75 CNS",
    "result": "> 10 µM"
  },
  {
    "compound": "CC[C@](O)(CC(=O)O[C@H]1C(=O)O[C@@H]2C[C@H]3C(C)=CC(=O)[C@@H](O)[C@]3(C)[C@H]3[C@@]4(O)OC[C@]32[C@@H]1[C@@H](C)[C@H]4O)C(C)C",
    "tgt": "SNB-75 CNS",
    "result": "< 0.01 µM"
  },
  {
    "compound": "O=[n+]1c2ccccc2n([O-])c2ccccc21",
    "tgt": "SNB-75 CNS",
    "result": "> 100 µM"
  },
  {
    "compound": "CC(C)(C)O/C=C1/C(=O)OC2C[C@@H](O[Si](C)(C)C(C)(C)C)CC12 (some centres undefined)",
    "tgt": "SNB-75 CNS",
    "result": "93.3 µM"
  },
  {
    "compound": "Cc1ccc(-n2cnc3c(N)nc(N)nc32)cc1",
    "tgt": "SNB-75 CNS",
    "result": "> 100 µM"
  }
]

// sample O=S(=O)(NC1=NCCN1C(=S)SN1CCn2c1nsc2=S)c1ccc(Br)cc1 , its TGI was > 100 µM

// sample CC1=C(C(=O)Nc2ccccc2C)C(c2ccc(Cl)c(Cl)c2)C(C(=O)Nc2ccccc2C)=C(C)N1 , its TGI was > 100 µM

// sample CC12OC(c3ccccc3)=CC(c3ccc(Cl)cc3)=C1C(c1ccccc1)=CC2=O (centres undefined) , its TGI was > 100 µM

// sample CCOC(=O)C(C(=O)OCC)=C1NC2(c3ccccc3Nc3ccc(C)cc32)C(C#N)S1 (centres undefined) , its TGI was 64.3 µM

// sample O=C(/C=C/c1ccc([N+](=O)[O-])o1)N1CCN(Cc2ccccc2)CC1 , its TGI was 30.4 µM

These measurements were taken from PubChem BioAssay (NCI).
